FYI, the data here is from patent US10704076B2.

Tested on: S. epidermidis
method_summary: MIC determination (CLSI, Mueller Hinton broth), planktonic cultures
Type: cell-based
applied_conditions: Staphylococcus epidermidis, MH, Aerobic, read-out: Minimum Inhibition Concentration
Answer each item with its documented MIC.
Answer with a number only, understood to be in µM.

Name the recorded MIC for NC(=S)N1CCN(c2cc3c(cc2F)c(=O)c(C(=O)O)cn3C2CC2)CC1 .
8.33

Name the recorded MIC for Cn1sc(Cl)c(C#N)c1=O .
20.8

Name the recorded MIC for O=C(O)c1cn(C2CC2)c2c(F)c(-c3ccncc3)c(F)cc2c1=O .
5.73

Name the recorded MIC for O=C(O)c1cn(C2CC2)c2c(F)c(N3CC(O)C3)c(F)cc2c1=O .
0.65
